# credit: paper PMC4176333

targetUnderTest: T1, YxiN_core (UniProt P42305 1-368)
T1 sequence: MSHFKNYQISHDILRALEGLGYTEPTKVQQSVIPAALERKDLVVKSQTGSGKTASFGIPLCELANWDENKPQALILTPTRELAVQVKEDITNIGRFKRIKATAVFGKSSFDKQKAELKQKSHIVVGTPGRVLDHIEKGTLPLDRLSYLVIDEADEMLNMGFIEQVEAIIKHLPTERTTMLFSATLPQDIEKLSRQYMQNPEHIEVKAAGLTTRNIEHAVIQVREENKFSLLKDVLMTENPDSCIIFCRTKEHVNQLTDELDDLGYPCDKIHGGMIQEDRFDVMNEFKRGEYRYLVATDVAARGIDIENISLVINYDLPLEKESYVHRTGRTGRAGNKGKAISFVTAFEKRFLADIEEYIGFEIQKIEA
methodNotes: fluorescence intensity titration
pKd: −log10 of the molar value.
measuredAttribute: pKd

binder: 14mer dsRNA (dsRNA) RNA 1: GGGCGGGCCCGCCC RNA 2: GGGCGGGCCCGCCC
measuredAttribute: pKd
measurement: 8.70
